PROCEDURE_SUMMARY: Agonist activity at human dopamine D3 receptor expressed in CHOp cells assessed as stimulation of mitogenesis incubated for 24 hrs by [3H]thymidine incorporation assay
Consider the following compounds; for each one, report its pEC50.
pEC50 is defined as minus the log10 of a concentration measured in mol/L.

# pEC50 lookup, item Oc1cccc(CCN(CCc2ccccc2)CC2CC2)c1
7.49

# pEC50 lookup, item CCCN(CCc1ccccc1)CCc1cccc(O)c1
8.28
